molecular target: KRAS G12C (Homo sapiens (Human), UniProt P01116, C118A/G12C); assay: 2 h coupled exchange assay; format: biochemical; details: read-out: Avg 2 h Coupled exchange IC50, 2 h compound pre-incubation
Sequence (P01116 other isoform, or with tags, fused parts or gaps G12C/C118A): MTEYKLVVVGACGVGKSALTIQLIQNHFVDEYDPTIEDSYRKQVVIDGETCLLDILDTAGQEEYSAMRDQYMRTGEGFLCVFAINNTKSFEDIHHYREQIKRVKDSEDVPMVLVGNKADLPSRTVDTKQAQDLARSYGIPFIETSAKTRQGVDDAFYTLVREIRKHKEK
pIC50: −log10 of the molar value.
quantity.measured: pIC50

compound="C=CC(=O)N1CC2(CCN(c3nc4c(c(-c5c(C)ccc6cnn(C)c56)c3C)CCN(C3(C)COC3)C4)C2)C1 (atropisomer, axis not shown; (P)) [Example 36-3]" value_measured=4.19
compound="C=CC(=O)N1CC2(CCN(c3nc4c(c(-c5c(C)ccc6cnn(C)c56)c3C)CCN(C3(C)COC3)C4)C2)C1 (atropisomer, axis not shown; (M)) [Example 36-2]" value_measured=7.06
compound="C=CC(=O)N1CC2(CCN(c3nc4c(c(-c5c(C)ccc6[nH]ncc56)c3C#N)CC(C(C)C)C4)C2)C1 (racemic)" value_measured=7.21

* * *

target: KRAS G12C (Homo sapiens (Human), UniProt P01116, C118A/G12C); test: 2 h coupled exchange assay; type: biochemical; settings: Avg 2 h Coupled exchange IC50, 2 h compound pre-incubation, SOS-mediated nucleotide exchange
quantity.measured: IC50 (µM)

compound="C=CC(=O)N1CC2(CCN(c3nc4c(c(-c5c(F)cccc5[C@@H](C)O)c3C#N)C[C@H]3C[C@@H]4C3(C)C)C2)C1 (single isomer, unassigned) [Example 12-37]" quantity_measured=IC50 unit_annotation=µM value_measured=1.44
compound="C=CC(=O)N1CC2(CCN(c3nc4c(c(-c5c(C)ccc6cnn(C)c56)c3C#N)[C@H]3C[C@@H](C4)C3)C2)C1 (single isomer, unassigned) [Example 13-132]" quantity_measured=IC50 unit_annotation=µM value_measured=24.4
compound="C=CC(=O)N1CC2(CCN(c3nc4c(c(-c5c(C)c(Cl)cc6cnn(C)c56)c3Cl)COC(C)(C)C4)C2)C1 (single isomer, unassigned) [Example 2-91]" quantity_measured=IC50 unit_annotation=µM value_measured=2.89
compound="C=CC(=O)N1CC2(CCN(c3nc4c(c(-c5cc(O)cc(C)c5Cl)c3C#N)COC(C)(C)C4)C2)C1 [Example 13-153]" quantity_measured=IC50 unit_annotation=µM value_measured=0.064
compound="C=CC(=O)N1CC2(CCN(c3nc4c(c(-c5cc(O)cc6ccccc56)c3C#N)C[C@H]3C[C@@H]4C3(C)C)C2)C1 (single isomer, unassigned) [Example 13-129]" quantity_measured=IC50 unit_annotation=µM value_measured=0.013
compound="C=CC(=O)N1CC2(CCN(c3nc4c(c(-c5cc(O)c(F)c6ccccc56)c3C#N)COC(C)(C)C4)C2)C1 (single isomer, unassigned) [Example 13-78]" quantity_measured=IC50 unit_annotation=µM value_measured=0.076

* * *

target: KRAS G12C (Homo sapiens (Human), UniProt P01116, C118A/G12C); test: 2 h coupled exchange assay; type: biochemical; conditions: read-out: Avg 2 h Coupled exchange IC50, 2 h compound pre-incubation, SOS-mediated nucleotide exchange
quantity.measured: IC50 (nM)

molecule="C=CC(=O)N1CC2(CCN(c3nc4c(c(-c5c(C)ccc6[nH]ncc56)c3C#N)CC[C@@H](C(F)(F)F)C4)C2)C1 (racemic) [Example 13-10]" value_measured=71

* * *

target: KRAS G12C (Homo sapiens (Human), UniProt P01116, C118A/G12C); experiment: 2 h coupled exchange assay; format: biochemical; conditions: Avg 2 h Coupled exchange IC50, 2 h compound pre-incubation
quantity.measured: IC50 (µM)

compound="C=CC(=O)N1CC2(CCN(c3nc4cc(-c5scnc5C)cnc4c(-c4cccc(C)c4C)c3C#N)C2)C1 [Example 19-1]" value_measured=0.074
compound="C=CC(=O)N1CC2(CCN(c3nc4cc(-n5ccnc5C)ccc4c(-c4ccccc4Cl)c3C)[C@H]2C)C1 (single isomer, unassigned) [Example 15-5]" value_measured=0.779
compound=C=CC(=O)N1CC2(C1)CN(c1nc3cc(OC)ccc3c(-c3c(C)ccc4[nH]ncc34)c1C#N)CC2(F)F value_measured=0.031

Where do these numbers come from? They come from patent US20240059703A1.
